Data provenance: paper PMC11721293

- assayNotes: Pharmacokinetics after single IP administration
- conditionLabel: K18-hACE2(Tg) C57Bl/6J, mouse, lung, 40 mg/kg
measuredQuantity: Tmax (min)

1. NC(=O)N1CCC(CC(=O)N2CCC([C@H]3c4ncc(Br)cc4CCc4cc(Cl)cc(Br)c43)CC2)CC1 ... 15

* * *

- System: VSV-SARS-CoV-2-S pseudovirus
- assayNotes: microbe, parasite or virus in culture
- Format: cell-based
- conditionLabel: read-out: EC50
Listing of entries alongside the reported EC50.
measuredQuantity: EC50

1) CN1CCC(=C2c3ccccc3CCc3cccnc32)CC1 [NCGC00182705] ... > 30 µM
2) NC1=NCC2c3ccccc3Cc3ccccc3N12 (stereo not drawn) [NCGC00165791] ... > 100 µM
3) CC(C)(C(=O)O)c1ccc([C@@H](O)CCCN2CCC(C(O)(c3ccccc3)c3ccccc3)CC2)cc1 [NCGC00015453] ... > 30 µM
4) CN(C)CC[C@H](c1ccc(Cl)cc1)c1ccccn1 [NCGC00015227] ... > 30 µM
5) CC(=O)N1CCN([C@@H](c2ccccc2)c2ccc(Cl)cc2)CC1 [NCGC00347049] ... > 100 µM
6) CN(C)CCN(Cc1cccs1)c1ccccn1 [NCGC00015704] ... > 30 µM
7) C[C@@H]1CN(C2CCC(C#N)(c3ccc(F)cc3)CC2)CC[C@]1(C(=O)O)c1ccccc1.Cl (stereo partly drawn) [NCGC00016939] ... > 30 µM
8) Cc1ccc(/C(=C/CN2CCCC2)c2ccccn2)cc1 [NCGC00024714] ... > 30 µM
9) Cc1ccccc1[C@@H](OCCN(C)C)c1ccccc1 [NCGC00015771] ... > 30 µM
10) CN(C)CC/C=C1/c2ccccc2COc2ccc(CC(=O)O)cc21 [NCGC00263532] ... > 30 µM
11) OCCOCCN1CCN([C@@H](c2ccccc2)c2ccc(Cl)cc2)CC1 [NCGC00018255] ... > 100 µM
12) C(=C/c1ccccc1)/CN1CCN(C(c2ccccc2)c2ccccc2)CC1 [NCGC00015246] ... > 30 µM
13) CC(C)(C)c1ccc(C(=O)CCCN2CCC(OC(c3ccccc3)c3ccccc3)CC2)cc1 [NCGC00164603] ... > 30 µM
14) CN(c1nccc(=O)[nH]1)C1CCN(c2nc3ccccc3n2Cc2ccc(F)cc2)CC1 [NCGC00181013] ... > 30 µM
15) FC(F)(F)CN1CCN([C@@H](c2ccccc2)c2ccc(Cl)cc2)CC1 [NCGC00351281] ... > 100 µM
16) CN(C)CCCN1c2ccccc2Sc2ccc(Cl)cc21 [NCGC00015273] ... > 30 µM
17) CN1CCC(N(c2ccccc2)c2ccccc2)CC1 [NCGC00351675] ... > 100 µM
18) Cc1cccc(CN2CCN([C@@H](c3ccccc3)c3ccc(Cl)cc3)CC2)c1 [NCGC00018296] ... > 30 µM
19) CC(CN(C)C)CN1c2ccccc2S(=O)(=O)c2ccccc21 (stereo not drawn) [NCGC00182075] ... > 30 µM
20) Cc1cccn2c(=O)c(-c3nnn[n-]3)cnc12.[K+] [NCGC00167434] ... > 30 µM
21) Clc1ccc(C(c2ccc(Cl)cc2)N2CCOCC2)cc1 [NCGC00354586] ... > 100 µM
